Biological target: T1, recombinant hIL-18Rα extracellular domain (human, UniProt Q13478 22-329, biotin label (selection) or fluorescent probe (single-clone FACS), sites not given)
T1 construct: extracellular domain; also called hIL-18Rα ECD; hIL-18Rα-ECD
T1 sequence (looked up): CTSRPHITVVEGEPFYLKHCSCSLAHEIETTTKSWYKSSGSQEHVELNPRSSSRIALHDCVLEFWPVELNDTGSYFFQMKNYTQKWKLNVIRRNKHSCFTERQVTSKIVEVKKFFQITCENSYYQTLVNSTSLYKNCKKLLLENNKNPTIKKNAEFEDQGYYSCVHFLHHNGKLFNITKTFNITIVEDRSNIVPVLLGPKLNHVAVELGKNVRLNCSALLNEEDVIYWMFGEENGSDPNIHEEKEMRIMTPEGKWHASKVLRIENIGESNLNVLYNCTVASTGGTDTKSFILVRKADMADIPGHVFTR
Test: single-clone FACS, yeast display, 10 nM labelled hIL-18Rα ECD
Experimental readout: % of fluorescence positive cells

{"Binder": "SEQ ID NO 89 (ligand) YFPKLASKLSVIRNLNDQVLFIDQGNRPLFEDMTDSDCRDNAPRTIFIISMYKHSSKRGMAVTISVKCEKISTLSCENKIISFKEMNPPDVIKDTKSDIIFFQVSVPGHDNKMQFESSSYEGYFLACEKERDLFKLILKKEDELGDRSIMFTVQNED", "Experimental readout": "% of fluorescence positive cells", "Measured result": "5.27%"}
{"Binder": "IL-18 variant polypeptide M9 (ligand) YFPKLRSKLSVIRNLNDQVLFIDQGNRPLFEDMTDSDCRDNAPRTIFIISMYKWSRARGMAVTISVKCEKISTLSCENKIISFKEMNPPDSIKDTKSDIIFFQSSVPGHDNKMQFESSSYEGYFLACEKERDLFKLILKKEDELGDRSIMFTVQNED", "Experimental readout": "% of fluorescence positive cells", "Measured result": "36.1%"}

Every entry's value here was drawn from patent US20260092093A1.
